- System: Alternaria solani
- test details: In vivo preventive test on Alternaria solani (tomato)
- experimental setup: 500 ppm of active ingredient, evaluated 7 days after inoculation
Efficacy overview
reported metric: Efficacy (%)

>>> value_observed("CCN(C(=O)c1c(C(F)F)nn(C)c1F)C(C)C(=O)c1ccccc1 (stereo not drawn) [Example 17]")
80
>>> value_observed("Cn1nc(C(F)F)c(C(=S)NCCc2ccc(Cl)cc2Cl)c1Cl [Example 72]")
94
>>> value_observed("CN(CCc1cc(Cl)ccc1Cl)C(=O)c1c(C(F)F)nn(C)c1F [Example 94]")
100
>>> value_observed("COC(CNC(=O)c1c(C(F)F)nn(C)c1F)c1cc(Cl)cc(Cl)c1 (stereo not drawn) [Example 107]")
90
>>> value_observed("Cn1nc(C(F)F)c(C(=O)NCCc2c(Cl)cccc2Cl)c1F [Example 117]")
95
>>> value_observed("CC(CN(C(=O)c1c(C(F)F)nn(C)c1Cl)C1CC1)c1ccccc1 (stereo not drawn) [Example 14]")
100
>>> value_observed("CC(CNC(=O)c1c(C(F)F)nn(C)c1F)c1ccc(Cl)cc1Cl (stereo not drawn) [Example 84]")
95
>>> value_observed("Cn1nc(C(F)F)c(C(=O)NC(C)(C)Cc2cccc(Oc3ccccc3)c2)c1F [Example 142]")
90
>>> value_observed("Cn1nc(C(F)F)c(C(=O)NCC(C)(C)c2ccc(Cl)cc2Cl)c1Cl [Example 88]")
100

---

This listing pairs compounds with measured logP.
- test details: logP by HPLC on reversed-phase column (C 18), EEC Directive 79/831 Annex V.A8
- Assay type: physicochemical
reported metric: logP

>>> value_observed("Cn1nc(C(F)F)c(C(=O)N(CCc2ccncc2)C2CCCC2)c1F")
1.20
>>> value_observed("CCN(C(=O)c1c(C(F)F)nn(C)c1F)C(C)C(=O)c1ccccc1 (stereo not drawn)")
2.59
>>> value_observed("COc1ccc(CCN(C(=O)c2c(C(F)F)nn(C)c2F)C2CCCCC2)cc1OC")
3.42
>>> value_observed("CC(CNC(=O)c1c(C(F)F)nn(C)c1F)c1c(F)cccc1F (stereo not drawn)")
2.78
>>> value_observed("CCN(CCc1ccc(Cl)cc1)C(=O)c1c(C(F)F)nn(C)c1Cl")
3.35
>>> value_observed("CC(Cc1ccc(Cl)cc1Cl)NC(=O)c1c(C(F)F)nn(C)c1Cl (stereo not drawn)")
3.67
>>> value_observed("CC(C)N(CCc1ccc(F)cc1)C(=O)c1c(C(F)F)nn(C)c1Cl")
3.37
>>> value_observed("Cc1cc(C)c(CCN(C)C(=O)c2c(C(F)F)nn(C)c2Cl)c(C)c1")
3.67
>>> value_observed("CC(Cc1ccc(Oc2ccccc2)cc1)NC(=S)c1c(C(F)F)nn(C)c1F (stereo not drawn)")
4.29

---

- Test system: Fusarium graminearum
- test details: microbe, parasite or virus in culture
- Format: cell-based
- experimental setup: 50 μM
# % Inhibition of fungal growth at 50 μM annotations
reported metric: % Inhibition of fungal growth at 50 μM (%)

>>> value_observed("COc1ccc(CCN(C)C(=O)c2c(C(F)F)nn(C)c2F)cc1OC [Example 129]")
70
>>> value_observed("CC(Cc1ccc(Oc2ccccc2)cc1)NC(=O)c1c(C(F)F)nn(C)c1F (stereo not shown) [Example 151]")
94
>>> value_observed("CC(Cc1ccco1)NC(=O)c1c(C(F)F)nn(C)c1F (stereo not shown) [Example 173]")
83
>>> value_observed("CC(Cc1ccc(Cl)cc1)N(C(=O)c1c(C(F)F)nn(C)c1F)C1CC1 (stereo not shown) [Example 55]")
100
>>> value_observed("CC(Cc1ccccc1F)N(C(=O)c1c(C(F)F)nn(C)c1Cl)C1CC1 (stereo not shown) [Example 20]")
69
>>> value_observed("CC(CNC(=O)c1c(C(F)F)nn(C)c1Cl)c1ccc(C(F)(F)F)cc1 (stereo not shown) [Example 128]")
82
>>> value_observed("Cn1nc(C(F)F)c(C(=O)NCC(C)(C)c2ccc(Cl)cc2Cl)c1Cl [Example 88]")
86
>>> value_observed("COC(CN(C(=O)c1c(C(F)F)nn(C)c1F)C1CC1)c1ccc(Cl)cc1Cl (stereo not shown) [Example 80]")
100
>>> value_observed("CN(CCc1ccccc1Cl)C(=O)c1c(C(F)F)nn(C)c1F [Example 35]")
100
>>> value_observed("CC(Cc1ccc(Cl)cc1Cl)NC(=S)c1c(C(F)F)nn(C)c1F (stereo not shown) [Example 70]")
100
>>> value_observed("Cn1nc(C(F)F)c(C(=O)N(C[Si](C)(C)c2cc(Cl)cc(Cl)c2)C2CC2)c1F [Example 242]")
100
>>> value_observed("CC(CNC(=O)c1c(C(F)F)nn(C)c1Cl)c1ccccc1Cl (stereo not shown) [Example 40]")
78
>>> value_observed("Cn1nc(C(F)F)c(C(=O)NC[Si](C)(C)c2cc(Cl)cc(Cl)c2)c1F [Example 244]")
100
>>> value_observed("CC(Cc1ccccc1Cl)NC(=S)c1c(C(F)F)nn(C)c1F (stereo not shown) [Example 37]")
78
>>> value_observed("CC(C)C(CNC(=O)c1c(C(F)F)nn(C)c1Cl)c1ccc(Cl)cc1 (stereo not shown) [Example 59]")
83
>>> value_observed("CCC(CNC(=O)c1c(C(F)F)nn(C)c1F)c1ncc(C(F)(F)F)cc1Cl (stereo not shown) [Example 192]")
100
>>> value_observed("Cn1nc(C(F)F)c(C(=O)NCCc2cc(Cl)ccc2Cl)c1Cl [Example 91]")
100
>>> value_observed("CC(CNC(=O)c1c(C(F)F)nn(C)c1F)c1ccc(C(F)(F)F)cc1 (stereo not shown) [Example 127]")
100
>>> value_observed("Cn1nc(C(F)F)c(C(=O)N(C[Si](C)(C)c2ccccc2Cl)C2CC2)c1F [Example 231]")
100
>>> value_observed("CC(Cc1ccccc1F)N(C(=O)c1c(C(F)F)nn(C)c1F)C1CC1 (stereo not shown) [Example 19]")
100
>>> value_observed("Cc1ccsc1CCNC(=O)c1c(C(F)F)nn(C)c1F [Example 164]")
95
>>> value_observed("Cn1nc(C(F)F)c(C(=O)NCCc2ccccc2C(F)(F)F)c1F [Example 121]")
100
>>> value_observed("Cn1nc(C(F)F)c(C(=O)NCCc2cc(Cl)ccc2Cl)c1F [Example 90]")
100
>>> value_observed("Cn1nc(C(F)F)c(C(=O)NCC(C)(C)c2ccc(Cl)cc2Cl)c1F [Example 87]")
94
>>> value_observed("CCC(NC(=O)c1c(C(F)F)nn(C)c1F)C(OC)c1ccc(Cl)cc1Cl (stereo not shown) [Example 77]")
100
>>> value_observed("Cn1nc(C(F)F)c(C(=O)NCCc2ncc(C(F)(F)F)cc2Cl)c1F [Example 187]")
100
>>> value_observed("Cn1nc(C(F)F)c(C(=O)NCCc2ncc(C(F)(F)F)cc2Cl)c1Cl [Example 191]")
100
>>> value_observed("Cn1nc(C(F)F)c(C(=O)NCCc2c(F)c(F)nc(F)c2F)c1F [Example 208]")
100
>>> value_observed("Cc1cc(Br)ccc1C(=O)C(C)(C)NC(=O)c1c(C(F)F)nn(C)c1F [Example 133]")
100
>>> value_observed("CN(CCc1cc(Cl)ccc1Cl)C(=O)c1c(C(F)F)nn(C)c1F [Example 94]")
100
>>> value_observed("CC(Cc1ccc(Cl)cc1Cl)NC(=S)c1c(C(F)F)nn(C)c1Cl (stereo not shown) [Example 69]")
86
>>> value_observed("Cn1nc(C(F)F)c(C(=O)NCCc2c(Cl)cccc2Cl)c1F [Example 117]")
100
>>> value_observed("Cn1nc(C(F)F)c(C(=O)NC[Si](C)(C)c2cccc(Cl)c2)c1F [Example 237]")
100
>>> value_observed("CC(Cc1ccccc1Cl)NC(=O)c1c(C(F)F)nn(C)c1F (stereo not shown) [Example 31]")
100
>>> value_observed("CC(CNC(=O)c1c(C(F)F)nn(C)c1Cl)c1ccc(Cl)cc1Cl (stereo not shown) [Example 85]")
100
>>> value_observed("CCN(C(=O)c1c(C(F)F)nn(C)c1F)C(C)C(=O)c1ccccc1 (stereo not shown) [Example 17]")
83
>>> value_observed("Cn1nc(C(F)F)c(C(=O)NCCc2cccc(Cl)c2)c1F [Example 47]")
100

---

- test details: logP by HPLC on reversed-phase column (C 18), EEC Directive 79/831 Annex V.A8
- Type: physicochemical
Some molecules, each annotated with its measured logP.
reported metric: logP

>>> value_observed("Cn1nc(C(F)F)c(C(=O)N(CCc2ccccc2)C2CC2)c1Cl")
3.06
>>> value_observed("CC(Cc1cc(Cl)cc(Cl)c1)NC(=O)c1c(C(F)F)nn(C)c1F (stereo not shown)")
3.48
>>> value_observed("Cn1nc(C(F)F)c(C(=O)NCCc2cc(Cl)ccc2Cl)c1F")
3.11
>>> value_observed("CCN(CCc1ccc(Cl)cc1)C(=S)c1c(C(F)F)nn(C)c1F")
3.92
>>> value_observed("Cn1nc(C(F)F)c(C(=O)NC2CCCCC2c2ccccc2)c1Cl (stereo not shown) [Example 215]")
3.51
>>> value_observed("Cn1nc(C(F)F)c(C(=O)NC[Si](C)(C)c2cc(Cl)cc(Cl)c2)c1Cl")
4.27
>>> value_observed("COCCN(CCc1ccccn1)C(=O)c1c(C(F)F)nn(C)c1Cl")
0.63
>>> value_observed("CC(CNC(=O)c1c(C(F)F)nn(C)c1Cl)c1ccccc1Cl (stereo not shown)")
3.15
>>> value_observed("CC(CNC(=O)c1c(C(F)F)nn(C)c1F)c1ccc(C(F)(F)F)cc1 (stereo not shown)")
3.25
>>> value_observed("CN(CCc1ccccc1)C(=O)c1c(C(F)F)nn(C)c1F")
2.43
>>> value_observed("Cn1nc(C(F)F)c(C(=O)N(CCc2ccccn2)C2CCCCC2)c1F")
1.48
>>> value_observed("Cn1nc(C(F)F)c(C(=O)NC2CCCCC2c2ccccc2)c1F (stereo not shown) [Example 212]")
3.13
>>> value_observed("CC(Cc1ncc(C(F)(F)F)cc1Cl)N(C(=O)c1c(C(F)F)nn(C)c1Cl)C1CC1 (stereo not shown)")
3.96
>>> value_observed("CC(CNC(=O)c1c(C(F)F)nn(C)c1Cl)c1c(F)cccc1F (stereo not shown)")
2.92
>>> value_observed("CC(Cc1ccc(Cl)cc1Cl)NC(=S)c1c(C(F)F)nn(C)c1F (stereo not shown)")
4.16
>>> value_observed("Cn1nc(C(F)F)c(C(=O)NC(C)(C)Cc2cccc(Oc3ccccc3)c2)c1F")
4.09
>>> value_observed("CC(CN(C(=O)c1c(C(F)F)nn(C)c1Cl)C1CC1)c1ccccc1 (stereo not shown)")
3.31
>>> value_observed("Cn1nc(C(F)F)c(C(=O)NCCc2ccccc2Cl)c1Cl")
2.88
>>> value_observed("CC(c1ccccc1Cl)C(C)N(C(=S)c1c(C(F)F)nn(C)c1F)C1CC1 (stereo not shown)")
4.72
>>> value_observed("Cc1scc(CCNC(=O)c2c(C(F)F)nn(C)c2F)c1C")
2.82
>>> value_observed("CC(Cc1c(Cl)cccc1Cl)N(C(=O)c1c(C(F)F)nn(C)c1Cl)C1CC1 (stereo not shown)")
4.29
>>> value_observed("CN(C[Si](C)(C)c1ccccc1)C(=O)c1c(C(F)F)nn(C)c1F")
3.23
>>> value_observed("Cn1nc(C(F)F)c(C(=O)NCCc2ccc(Cl)nc2)c1Cl")
1.90
>>> value_observed("Cn1nc(C(F)F)c(C(=O)NCC(C)(C)c2cc(Cl)cc(Cl)c2)c1F")
3.87
>>> value_observed("Cn1nc(C(F)F)c(C(=O)NCC(C)(C)c2ccc(Cl)cc2)c1Cl")
3.58
>>> value_observed("Cc1ccsc1CCNC(=O)c1c(C(F)F)nn(C)c1F")
2.49
>>> value_observed("CC(C)N(CCc1ccc(F)cc1)C(=O)c1c(C(F)F)nn(C)c1F")
3.23
>>> value_observed("Cn1nc(C(F)F)c(C(=O)NC2CC2c2ccccc2C(F)(F)F)c1F (stereo not shown)")
3.00
>>> value_observed("CC(C)N(CCc1ccccc1)C(=O)c1c(C(F)F)nn(C)c1Cl")
3.35
>>> value_observed("Cn1nc(C(F)F)c(C(=O)NCCc2ccccc2C(F)(F)F)c1Cl")
3.11
>>> value_observed("CC(C)C(CNC(=O)c1c(C(F)F)nn(C)c1Cl)c1ccc(Cl)cc1 (stereo not shown)")
3.94
>>> value_observed("Cn1nc(C(F)F)c(C(=O)N(CCc2ccccn2)C2CCCC2)c1F")
1.29
>>> value_observed("CC(Cc1cc(Cl)cc(Cl)c1)NC(=O)c1c(C(F)F)nn(C)c1Cl (stereo not shown)")
3.67
>>> value_observed("Cn1nc(C(F)F)c(C(=O)N(CCc2ccncc2)C2CCCCC2)c1Cl")
1.50
>>> value_observed("Cn1nc(C(F)F)c(C(=O)NCCc2cccc(Oc3ccccc3)c2)c1Cl")
3.55
>>> value_observed("Cn1nc(C(F)F)c(C(=O)NC2CC2c2cccc(F)c2)c1Cl (stereo not shown)")
2.75
>>> value_observed("Cn1nc(C(F)F)c(C(=O)N(CCc2ccccc2)C2CC2)c1F")
2.88
